Cited source for all entries: patent US20250197363A1

- measuredOn: PPARδ ligand-binding domain (LBD) (Homo sapiens (Human), UniProt Q03181)
- Sequence (Q03181 211-439): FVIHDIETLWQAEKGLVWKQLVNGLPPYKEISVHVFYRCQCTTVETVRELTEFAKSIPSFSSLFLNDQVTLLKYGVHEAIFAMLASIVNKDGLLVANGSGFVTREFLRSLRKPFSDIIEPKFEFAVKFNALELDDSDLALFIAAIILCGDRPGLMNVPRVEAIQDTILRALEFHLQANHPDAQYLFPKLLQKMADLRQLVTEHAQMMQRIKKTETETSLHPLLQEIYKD
- methodDescription: PPARδ activation, TR-FRET coactivator peptide recruitment (enzyme activity EC50)
- conditionNotes: GST-PPARδ LBD 5 nM, read-out: Enzymatic activity (EC50)
pEC50: −log10 of the molar value.

compound	pEC50
Cc1ccc(-c2nnc(CSc3ccc(OC(C)C(=O)O)c(C)c3)s2)cc1 (centres unmarked)	5.24
Cc1cc(SCc2nnc(-c3cc(F)c(F)c(F)c3)s2)ccc1OCC(=O)O	5.40
Cc1ccc(-c2nnc(CSc3ccc(OC(C)(C)C(=O)O)c(C)c3)s2)cc1	5.90
Cc1cc(SCc2nnc(-c3ccc(C(F)(F)F)cc3)s2)ccc1OC(C)C(=O)O (centres unmarked)	6.38
Cc1cc(SCc2nnc(-c3ccc(OC(F)(F)F)cc3)s2)ccc1OCC(=O)O	7.38
Cc1cc(SCc2nnc(-c3ccc(C(F)(F)F)cc3)s2)ccc1OCC(=O)NC#N	6.30
Cc1cc(SCc2nnc(-c3ccc(C(F)(F)F)c(F)c3)s2)ccc1OC(C)(C)C(=O)O	5.58
Cc1cc(SCc2nnc(-c3ccc(F)c(Cl)c3)s2)ccc1OCC(=O)O	5.87
